testedOn: full-length SARM1 (FL-SARM1) (Homo sapiens)
Sequence (Q6SZW1 28-724): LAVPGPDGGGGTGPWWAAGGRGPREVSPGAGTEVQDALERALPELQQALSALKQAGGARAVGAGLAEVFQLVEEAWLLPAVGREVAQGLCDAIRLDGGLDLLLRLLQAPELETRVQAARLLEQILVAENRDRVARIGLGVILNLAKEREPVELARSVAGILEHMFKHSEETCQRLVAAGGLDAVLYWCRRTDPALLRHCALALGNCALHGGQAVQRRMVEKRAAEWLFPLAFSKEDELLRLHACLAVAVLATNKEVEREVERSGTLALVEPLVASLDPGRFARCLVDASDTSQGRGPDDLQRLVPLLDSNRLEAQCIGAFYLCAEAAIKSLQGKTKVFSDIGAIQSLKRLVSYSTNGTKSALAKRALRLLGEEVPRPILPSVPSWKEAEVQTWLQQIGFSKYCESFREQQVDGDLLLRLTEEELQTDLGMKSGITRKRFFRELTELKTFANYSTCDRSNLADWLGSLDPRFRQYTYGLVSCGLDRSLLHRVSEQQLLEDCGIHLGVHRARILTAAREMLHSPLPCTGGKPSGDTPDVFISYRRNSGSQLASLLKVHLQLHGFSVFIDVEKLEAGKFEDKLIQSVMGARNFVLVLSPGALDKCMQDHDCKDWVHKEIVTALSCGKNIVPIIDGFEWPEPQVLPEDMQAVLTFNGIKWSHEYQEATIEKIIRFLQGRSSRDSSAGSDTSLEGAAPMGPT
procedureSummary: FL-SARM1 cellular lysate assay (NAD/NADH-Glo detection of remaining NAD+, NMN-activated)
particulars: Activity (μM) (IC50), 11 point curve
Please go through the items and note down their IC50.
Answers are plain numbers, in µM.

> print(dat)
                                   compound  reportedproperty  readoutunit  result
1  Cc1ccc(NC(=O)[C@H]2C[C@H]3C[C@H]3N2c2cnccn2)cc1-c1ncc(F)cn1              IC50           µM     1.1

Give one value of IC50 per listed compound.
1. Cc1ccc(NC(=O)N2C3CC2CC(C(F)(F)F)C3)cc1-c1ccccn1 (single isomer, unassigned)
2. CO[C@H]1CCCN(C(=O)Nc2ccc(C(F)(F)F)c(-c3ncc(F)cn3)c2)CC1
3. Cc1ccc(NC(=O)[C@H]2CC[C@@H](C)N2c2ccc(C#N)cn2)cc1-c1ncc(F)cn1
4. Cc1ccc(NC(=O)N2CC3CC3(c3ccccc3)C2)cc1-c1ccccn1 (stereo not shown)

Ans.
1: 0.01; 2: 13; 3: 2.2; 4: 15

Give one value of IC50 per listed compound.
1. COC(=O)C12CCCC(C1)N2C(=O)Nc1ccc(C)c(-c2ccccn2)c1 (stereo not shown)
2. Cc1ccc(NC(=O)N2CC3CC2c2ccccc2O3)cc1-c1ccccn1 (stereo not shown)
3. C[C@@H]1CC2C[C@H](C1)N2C(=O)Nc1ccc(CF)c(-c2ncc(F)cn2)c1
4. COc1ccc(-c2cc(NC(=O)N3C4CCCC3C4)ccc2C)nn1
5. Cc1ccc(NC(=O)N2C3CCCC2C3)cc1-c1ccc(F)cn1

Ans.
1: 0.1; 2: 1.4; 3: 0.03; 4: 1.1; 5: 0.08
